Tested on: African green monkey Vero cells
assay protocol: Cytotoxicity by standard MTT assay on Vero cells
Assay type: cell-based
measurement setup: MTT assay, read-out: TC50 (the source's name)

{"smiles str": "Cc1ccc(S(=O)(=O)Nc2cn(C)cc2NS(=O)(=O)c2ccc(C)cc2)cc1", "CC50": "≤ 57 µM"}

====

assay protocol: Cytotoxicity by standard MTT assay on Vero cells
Format: cell-based, African green monkey
measurement setup: African green monkey, MTT assay, read-out: TC50 (the source's name)

{"compound": "Cc1ccc(S(=O)(=O)Nc2cn(C)cc2NS(=O)(=O)c2ccc(C)cc2)cc1 [compound 1]", "CC50, µM": 57}
